procedure_details: The drug is tested on WLS-010 corresponding to human gut metagenome with ENA study accession number: PRJEB37062 and ENA sample accession number: ERS12561743 for biotransformation under anaerobic condition. The drug concentrations were measured over 9 timepoints collected between 0 and 24 hours of incubation by liquid-chromatography-coupled mass spectrometry (LC–MS); also: call rule not given here
condition_set: 2 µM

# compound, Bacterial Biotransformation
data = [
    ("CCN1CCCC1CNC(=O)c1cc(S(=O)(=O)CC)c(N)cc1OC (centres undefined) [AMISULPRIDE]", "Compound NOT metabolized"),
    ("CN(C)CCC=C1c2ccccc2COc2ccccc21 [DOXEPIN]", "Compound NOT metabolized"),
    ("C#C[C@]1(OC(C)=O)CC[C@H]2[C@@H]3CCC4=C[C@@H](OC(C)=O)CC[C@@H]4[C@H]3CC[C@@]21C [ETHYNODIOL DIACETATE]", "Compound metabolized"),
    ("N=C(N)NC(=O)Cc1c(Cl)cccc1Cl [GUANFACINE]", "Compound NOT metabolized"),
    ("CCN(CC)CCNC(=O)c1cc(S(C)(=O)=O)ccc1OC [TIAPRIDE]", "Compound NOT metabolized"),
    ("COc1ccc(C(CN(C)C)C2(O)CCCCC2)cc1 (centres undefined) [VENLAFAXINE]", "Compound NOT metabolized"),
    ("O=C(NC(Cc1cc(=O)[nH]c2ccccc12)C(=O)O)c1ccc(Cl)cc1 (centres undefined) [REBAMIPIDE]", "Compound metabolized"),
    ("COc1ccnc(C[S+]([O-])c2nc3ccc(OC(F)F)cc3[nH]2)c1OC (centres undefined) [PANTOPRAZOLE]", "Compound metabolized"),
    ("COC(=O)[C@H](c1ccccc1Cl)N1CCc2sccc2C1.O=S(=O)(O)O [CLOPIDOGREL BISULFATE]", "Compound metabolized"),
]

###

procedure_details: The drug is tested on WLS-077 corresponding to human gut metagenome with ENA study accession number: PRJEB37062 and ENA sample accession number: ERS12561750 for biotransformation under anaerobic condition. The drug concentrations were measured over 9 timepoints collected between 0 and 24 hours of incubation by liquid-chromatography-coupled mass spectrometry (LC–MS)
condition_set: 2 µM
outcome_measure: Bacterial Biotransformation

# molecule, outcome_measure, measurement
measured = [
    ("CC1=C(CC(=O)O)c2cc(F)ccc2/C1=C\\c1ccc([S+](C)[O-])cc1 (centres undefined)", "Bacterial Biotransformation", "Compound metabolized"),
    ("CC(=O)O[C@H]1C(=O)[C@@]2(C)[C@H]([C@H](OC(=O)c3ccccc3)[C@]3(O)C[C@H](OC(=O)[C@H](O)[C@@H](NC(=O)c4ccccc4)c4ccccc4)C(C)=C1C3(C)C)[C@]1(OC(C)=O)CO[C@@H]1C[C@@H]2O", "Bacterial Biotransformation", "Compound metabolized"),
    ("O=C1CN2Cc3c(ccc(Cl)c3Cl)N=C2N1 [ANAGRELIDE]", "Bacterial Biotransformation", "Compound NOT metabolized"),
    ("Cc1ccccc1C(OCCN(C)C)c1ccccc1.O=C(O)CC(O)(CC(=O)O)C(=O)O (centres undefined) [ORPHENADRINE CITRATE]", "Bacterial Biotransformation", "Compound NOT metabolized"),
]

###

condition_set: human gut metagenome, 24 h, 2 µM
outcome_measure: Bacterial Biotransformation

# compound, measurement
data = [
    ("COc1ccc(CN2CCNCC2)c(OC)c1OC.Cl.Cl [TRIMETAZIDINE DIHYDROCHLORIDE]", "Compound NOT metabolized"),
    ("OC(c1cc(C(F)(F)F)nc2c(C(F)(F)F)cccc12)C1CCCCN1 (centres undefined)", "Compound metabolized"),
    ("O=C1CC2(CCCC2)CC(=O)N1CCCCN1CCN(c2ncccn2)CC1", "Compound metabolized"),
    ("CCN(C(C)=O)c1cccc(-c2ccnc3c(C#N)cnn23)c1", "Compound metabolized"),
    ("CC(C)C[C@H]1C(=O)N2CCC[C@H]2[C@]2(O)O[C@](NC(=O)[C@@H]3C=C4c5cccc6[nH]c(Br)c(c56)C[C@H]4N(C)C3)(C(C)C)C(=O)N12.CS(=O)(=O)O [BROMOCRIPTINE MESYLATE]", "Compound metabolized"),
    ("CC(C)(C)N.CCC[C@H](N[C@@H](C)C(=O)N1[C@H](C(=O)O)C[C@@H]2CCCC[C@@H]21)C(=O)OCC", "Compound metabolized"),
    ("CC(N)C12CC3CC(CC(C3)C1)C2 (centres undefined)", "Compound NOT metabolized"),
    ("Clc1cccc(Cl)c1N=C1NCCN1", "Compound metabolized"),
    ("CN[C@H]1CC[C@@H](c2ccc(Cl)c(Cl)c2)c2ccccc21", "Compound metabolized"),
    ("Nc1nnc(-c2cccc(Cl)c2Cl)c(N)n1", "Compound NOT metabolized"),
    ("COC1=C(OC)C(=O)C(CCCCCCCCCCO)=C(C)C1=O", "Compound NOT metabolized"),
    ("COC(=O)C(c1ccccc1)C1CCCCN1 (centres undefined) [METHYLPHENIDATE]", "Compound NOT metabolized"),
    ("C#C[C@]1(OC(C)=O)CC[C@H]2[C@@H]3CCC4=C/C(=N/O)CC[C@@H]4[C@H]3CC[C@@]21CC [NORGESTIMATE]", "Compound metabolized"),
    ("CN(C)CCc1c[nH]c2ccc(CS(=O)(=O)N3CCCC3)cc12", "Compound metabolized"),
    ("CCOC(=O)[C@H](CCc1ccccc1)N[C@@H](C)C(=O)N1Cc2ccccc2C[C@H]1C(=O)O", "Compound metabolized"),
    ("Nc1nc(N)nc(-c2cc(Cl)ccc2Cl)n1.O=C(O)/C=C\\C(=O)O [IRSOGLADINE MALEATE]", "Compound NOT metabolized"),
    ("CN1[C@@H]2CC[C@H]1C[C@@H](OC(=O)c1c[nH]c3ccccc13)C2", "Compound NOT metabolized"),
    ("CC(CCc1ccccc1)NCC(O)c1ccc(O)c(C(N)=O)c1 (centres undefined)", "Compound metabolized"),
    ("CCOc1cc(CC(=O)N[C@@H](CC(C)C)c2ccccc2N2CCCCC2)ccc1C(=O)O [REPAGLINIDE]", "Compound metabolized"),
    ("N[C@@H](Cc1ccc(N(CCCl)CCCl)cc1)C(=O)O", "Compound metabolized"),
    ("C[N+]12CCC(CC1)C(OC(=O)C(O)(c1ccccc1)c1ccccc1)C2.[Br-] (centres undefined) [CLIDINIUM BROMIDE]", "Compound metabolized"),
    ("O=C(O)c1cc(/N=N/c2ccc(S(=O)(=O)Nc3ccccn3)cc2)ccc1O", "Compound metabolized"),
    ("CCN(CC)C(=O)C1(c2ccccc2)CC1CN (centres undefined)", "Compound NOT metabolized"),
    ("CCc1oc2ccccc2c1C(=O)c1cc(Br)c(O)c(Br)c1", "Compound metabolized"),
    ("CCN(CC)CCNC(=O)c1ccc(NC(C)=O)cc1 [ACECAINIDE]", "Compound metabolized"),
    ("C=C[C@H]1CN2CC[C@H]1C[C@H]2[C@H](O)c1ccnc2ccc(OC)cc12.C=C[C@H]1CN2CC[C@H]1C[C@H]2[C@H](O)c1ccnc2ccc(OC)cc12.O.O.O=S(=O)(O)O [QUININE SULFATE]", "Compound NOT metabolized"),
    ("CC(C)NCC(O)COc1ccc(CC(N)=O)cc1 (centres undefined)", "Compound NOT metabolized"),
    ("CN1CCC[C@@H]1CCO[C@](C)(c1ccccc1)c1ccc(Cl)cc1.O=C(O)/C=C/C(=O)O [CLEMASTINE FUMARATE]", "Compound metabolized"),
    ("CC(C)c1c(CN(C)C(C)Cc2ccccc2)n(C)n(-c2ccccc2)c1=O (centres undefined)", "Compound metabolized"),
    ("CC(=O)O[C@]1(C(C)=O)CC[C@H]2[C@@H]3C=C(C)C4=CC(=O)CC[C@]4(C)[C@H]3CC[C@@]21C [MEGESTROL ACETATE]", "Compound metabolized"),
    ("N#Cc1ccc2c(c1)N(CCCN1CCC(O)CC1)c1ccccc1S2", "Compound metabolized"),
    ("CC1Cc2ccccc2N1NC(=O)c1ccc(Cl)c(S(N)(=O)=O)c1 (centres undefined) [INDAPAMIDE]", "Compound NOT metabolized"),
    ("CC[C@@]1(O)C(=O)OCc2c1cc1n(c2=O)Cc2cc3c(CN(C)C)c(O)ccc3nc2-1", "Compound NOT metabolized"),
    ("O=P1(N(CCCl)CCCl)NCCCO1 (centres undefined) [CYCLOPHOSPHAMIDE ANHYDROUS]", "Compound metabolized"),
]

###

condition_set: human gut metagenome, 24 h, 2 µM

# molecule, Bacterial Biotransformation
data = [
    ("O=C(CCCN1CCC2(CC1)C(=O)NCN2c1ccccc1)c1ccc(F)cc1 [SPIPERONE]", "Compound NOT metabolized"),
    ("CN1CCC(=C2c3ccccc3CC(=O)c3sccc32)CC1.O=C(O)/C=C/C(=O)O [KETOTIFEN FUMARATE]", "Compound NOT metabolized"),
    ("COc1cc2nc(N3CCN(C(=O)C4COc5ccccc5O4)CC3)nc(N)c2cc1OC.CS(=O)(=O)O (configuration not stated) [DOXAZOSIN MESYLATE]", "Compound NOT metabolized"),
    ("CC(C)(C)NCC(O)c1cc(Cl)c(N)c(Cl)c1 (configuration not stated) [CLENBUTEROL]", "Compound NOT metabolized"),
    ("O=C1CC2(CCCC2)CC(=O)N1CCCCN1CCN(c2ncccn2)CC1 [BUSPIRONE]", "Compound NOT metabolized"),
    ("Cc1cc2c(s1)Nc1ccccc1N=C2N1CCN(C)CC1 [OLANZAPINE]", "Compound NOT metabolized"),
    ("CN(C)CCc1c[nH]c2ccc(CS(=O)(=O)N3CCCC3)cc12 [ALMOTRIPTAN]", "Compound NOT metabolized"),
    ("Br.CN1CCC[C@@H]1Cc1c[nH]c2ccc(CCS(=O)(=O)c3ccccc3)cc12 [ELETRIPTAN HYDROBROMIDE]", "Compound NOT metabolized"),
    ("CN1[C@@H]2CC[C@H]1C[C@@H](OC(=O)c1c[nH]c3ccccc13)C2 [TROPISETRON]", "Compound NOT metabolized"),
    ("COc1ccc(/C=C/C(=O)Nc2ccccc2C(=O)O)cc1OC", "Compound NOT metabolized"),
    ("CCc1oc2ccccc2c1C(=O)c1cc(Br)c(O)c(Br)c1 [BENZBROMARONE]", "Compound metabolized"),
    ("O=P1(N(CCCl)CCCl)NCCCO1 (configuration not stated) [CYCLOPHOSPHAMIDE ANHYDROUS]", "Compound NOT metabolized"),
    ("CCN1CCCC1CNC(=O)c1cc(S(=O)(=O)CC)c(N)cc1OC (configuration not stated) [AMISULPRIDE]", "Compound NOT metabolized"),
    ("O=C1N=C([O-])NC1(c1ccccc1)c1ccccc1.[Na+] [PHENYTOIN SODIUM]", "Compound metabolized"),
    ("C[C@@H](c1ncncc1F)[C@](O)(Cn1cncn1)c1ccc(F)cc1F [VORICONAZOLE]", "Compound metabolized"),
    ("CC(=O)O[C@]1(C(C)=O)CC[C@H]2[C@@H]3C=C(C)C4=CC(=O)CC[C@]4(C)[C@H]3CC[C@@]21C [MEGESTROL ACETATE]", "Compound metabolized"),
    ("CCOC(=O)C1=C[C@]2(CC)CCCN3CCc4c(n1c1ccccc41)[C@@H]32 [VINPOCETINE]", "Compound metabolized"),
    ("CC(C)(C)N.CCC[C@H](N[C@@H](C)C(=O)N1[C@H](C(=O)O)C[C@@H]2CCCC[C@@H]21)C(=O)OCC [PERINDOPRIL ERBUMINE]", "Compound metabolized"),
    ("C[C@]12CCC(=O)C=C1[C@@H]1C[C@@H]1[C@H]1[C@@H]3[C@@H]4C[C@@H]4[C@@]4(CCC(=O)O4)[C@@]3(C)CC[C@@H]12 [DROSPIRENONE]", "Compound metabolized"),
    ("O=C([O-])C[C@H](O)C[C@H](O)/C=C/c1c(C2CC2)nc2ccccc2c1-c1ccc(F)cc1.O=C([O-])C[C@H](O)C[C@H](O)/C=C/c1c(C2CC2)nc2ccccc2c1-c1ccc(F)cc1.[Ca+2] [PITAVASTATIN CALCIUM]", "Compound metabolized"),
    ("COc1ccc2c(c1)c(CC(=O)O)c(C)n2C(=O)c1ccc(Cl)cc1 [INDOMETHACIN]", "Compound metabolized"),
    ("Nc1nnc(-c2cccc(Cl)c2Cl)c(N)n1 [LAMOTRIGINE]", "Compound NOT metabolized"),
]
